Test system: tracheal smooth muscle
procedure_details: Dilating action to contraction of tracheal smooth muscle (potassium chloride-induced contraction of isolated trachea segment, Magnus tube)
Format: cell-based
condition_parameters: Cavia porcellus; 30 μM test substance; contraction induced by 72.7 mM potassium chloride; guinea pig (Hartley, male) trachea segment; read-out: Activity (suppressing rate for contraction by potassium chloride)
Can you tell me inhibition at 30 µM for the items I'm about to list?

Query: Given the molecule Oc1cc(O)c2c(c1)Oc1c(Cl)cc(Cl)cc1CC2 [Compound 35] , write its reported inhibition at 30 µM.
Reply: ≤ 50%

Query: Given the molecule CC(=O)c1ccc2c(c1)CCc1c(O)cc(O)cc1S2 [Compound 86] , write its reported inhibition at 30 µM.
Reply: ≥ 50%

Query: Given the molecule O=C1Cc2cccc(Cl)c2Oc2cc(O)cc(O)c21 [Compound 36] , write its reported inhibition at 30 µM.
Reply: ≥ 50%

Query: Given the molecule CCc1ccc2c(c1)CC(=O)c1c(O)cc(O)cc1O2 [Compound 112] , write its reported inhibition at 30 µM.
Reply: ≥ 50%

Query: Given the molecule O=C1Cc2ccc(Cl)cc2Oc2cc(O)cc(O)c21 [Compound 15] , write its reported inhibition at 30 µM.
Reply: ≥ 50%

Query: Given the molecule CC(C)c1ccc2c(c1)CC(=O)c1cc(O)c(O)cc1S2 [Compound 106] , write its reported inhibition at 30 µM.
Reply: ≥ 50%

Query: Given the molecule O=C1Cc2ccccc2Oc2c1ccc(O)c2O [Compound 8] , write its reported inhibition at 30 µM.
Reply: ≤ 50%

Query: Given the molecule O=C1Cc2ccccc2Oc2cc(O)c(O)c(O)c21 [Compound 9] , write its reported inhibition at 30 µM.
Reply: ≤ 50%

Query: Given the molecule O=C1Cc2cc(C#CCO)ccc2Oc2cc(O)cc(O)c21 [Compound 114] , write its reported inhibition at 30 µM.
Reply: ≥ 50%

Query: Given the molecule Oc1cc2c(cc1O)Oc1ccccc1CC2 [Compound 14, 10,11-dihydrodibenz[b,f]oxepin-2,3-diol] , write its reported inhibition at 30 µM.
Reply: ≤ 50%

Query: Given the molecule CC(=O)c1c(O)cc(O)c2c1Oc1ccccc1CC2 [Compound 47] , write its reported inhibition at 30 µM.
Reply: ≥ 50%

Query: Given the molecule O=C1Cc2c(F)cccc2Oc2cc(F)c(F)cc21 [Compound 63] , write its reported inhibition at 30 µM.
Reply: ≥ 50%

Query: Given the molecule O=C1Cc2ccccc2Oc2c(O)ccc(O)c21 [Compound 7] , write its reported inhibition at 30 µM.
Reply: ≥ 50%

Query: Given the molecule CCC(=O)c1c(O)c2c(c(C(=O)CC)c1O)Sc1ccccc1CC2 [Compound 89] , write its reported inhibition at 30 µM.
Reply: ≥ 50%

Query: Given the molecule CC(=O)c1c(O)cc(O)c2c1Sc1ccccc1CC2 [Compound 85] , write its reported inhibition at 30 µM.
Reply: ≥ 50%

Query: Given the molecule Cc1ccc2c(c1)CC(=O)c1cc(O)c(O)cc1S2 [Compound 104] , write its reported inhibition at 30 µM.
Reply: ≥ 50%

Query: Given the molecule Oc1cc(O)c2c(c1)Sc1ccccc1CC2 [Compound 81] , write its reported inhibition at 30 µM.
Reply: ≥ 50%

Query: Given the molecule O=C1Cc2ccc(Cl)c(Cl)c2Oc2cc(O)cc(O)c21 [Compound 27] , write its reported inhibition at 30 µM.
Reply: ≥ 50%

Query: Given the molecule O=C1Cc2ccccc2Oc2cc(O)cc(O)c21 [Compound 11] , write its reported inhibition at 30 µM.
Reply: ≥ 50%

Query: Given the molecule O=C1Cc2cc(C#CCCCO)ccc2Oc2cc(O)cc(O)c21 [Compound 116] , write its reported inhibition at 30 µM.
Reply: ≥ 50%

Query: Given the molecule O=C1Cc2cc(O)c(O)cc2Oc2cc(O)cc(O)c21 [Compound 40] , write its reported inhibition at 30 µM.
Reply: ≤ 50%

Query: Given the molecule CCC(=O)c1c(O)cc(O)c2c1Sc1ccccc1CC2 [Compound 90] , write its reported inhibition at 30 µM.
Reply: ≥ 50%

Query: Given the molecule CC(=O)c1ccc2c(c1)CCc1c(O)cc(O)cc1O2 [Compound 95] , write its reported inhibition at 30 µM.
Reply: ≥ 50%

Query: Given the molecule Oc1cc(O)c2c(c1)Oc1cc(Cl)ccc1CC2 [Compound 16] , write its reported inhibition at 30 µM.
Reply: ≤ 50%

Query: Given the molecule O=C1Cc2c(F)cccc2Oc2cc(O)cc(O)c21 [Compound 49] , write its reported inhibition at 30 µM.
Reply: ≥ 50%

Query: Given the molecule O=C1Cc2ccccc2Oc2cc(O)c(O)cc21 [Compound 13] , write its reported inhibition at 30 µM.
Reply: ≤ 50%

Query: Given the molecule Oc1cc(O)c2c(c1)Oc1c(ccc(Cl)c1Cl)CC2 [Compound 28] , write its reported inhibition at 30 µM.
Reply: ≤ 50%

Query: Given the molecule CC(=O)c1ccc2c(c1)C=Cc1cc(O)c(O)cc1S2 [Compound 92, 8-acetyldibenzo[b,f]thiepin-2,3-diol] , write its reported inhibition at 30 µM.
Reply: ≥ 50%

Query: Given the molecule O=C1Cc2ccccc2Oc2c(O)c(O)cc(O)c21 [Compound 2] , write its reported inhibition at 30 µM.
Reply: ≤ 50%

Query: Given the molecule O=C1Cc2cc(Cl)ccc2Oc2cc(O)cc(O)c21 [Compound 19] , write its reported inhibition at 30 µM.
Reply: ≥ 50%

Query: Given the molecule O=C1Cc2cc(Cl)cc(Cl)c2Oc2cc(O)cc(O)c21 [Compound 34] , write its reported inhibition at 30 µM.
Reply: ≥ 50%

Query: Given the molecule Nc1ccc2c(c1)CC(=O)c1c(O)cc(O)cc1O2 [Compound 71] , write its reported inhibition at 30 µM.
Reply: ≥ 50%

Query: Given the molecule Oc1cc(O)c2c(c1)Oc1ccc(C(F)(F)F)cc1CC2 [Compound 39] , write its reported inhibition at 30 µM.
Reply: ≥ 50%

Query: Given the molecule Oc1cc(O)c2c(c1)Oc1cc(F)ccc1CC2 [Compound 24] , write its reported inhibition at 30 µM.
Reply: ≥ 50%

Query: Given the molecule Oc1cc(O)c2c(c1)Oc1c(Cl)cccc1CC2 [Compound 37] , write its reported inhibition at 30 µM.
Reply: ≥ 50%

Query: Given the molecule O=C1Cc2cc(C(F)(F)F)ccc2Oc2cc(O)cc(O)c21 [Compound 38] , write its reported inhibition at 30 µM.
Reply: ≥ 50%

Query: Given the molecule Nc1ccc2c(c1)CCc1c(O)cc(O)cc1O2 [Compound 77] , write its reported inhibition at 30 µM.
Reply: ≤ 50%

Query: Given the molecule O=C1Cc2cc(Br)ccc2Oc2cc(O)cc(O)c21 [Compound 110] , write its reported inhibition at 30 µM.
Reply: ≥ 50%

Query: Given the molecule O=C1Cc2ccc(F)cc2Oc2cc(O)cc(O)c21 [Compound 23] , write its reported inhibition at 30 µM.
Reply: ≥ 50%

Query: Given the molecule Oc1cc(O)c2c(c1)Oc1ccc(Cl)cc1CC2 [Compound 20] , write its reported inhibition at 30 µM.
Reply: ≤ 50%

Query: Given the molecule CC(O)c1ccc2c(c1)CCc1c(O)cc(O)cc1O2 (centres unmarked) [Compound 96] , write its reported inhibition at 30 µM.
Reply: ≥ 50%

Where these numbers come from: patent US6495592B1
